Entry source: BindingDB's records for doi:10.1074/jbc.272.51.31949

# ASSAY_TARGET: Galanin receptor type 3 (Rattus norvegicus)
# Sequence (O88626 whole entry): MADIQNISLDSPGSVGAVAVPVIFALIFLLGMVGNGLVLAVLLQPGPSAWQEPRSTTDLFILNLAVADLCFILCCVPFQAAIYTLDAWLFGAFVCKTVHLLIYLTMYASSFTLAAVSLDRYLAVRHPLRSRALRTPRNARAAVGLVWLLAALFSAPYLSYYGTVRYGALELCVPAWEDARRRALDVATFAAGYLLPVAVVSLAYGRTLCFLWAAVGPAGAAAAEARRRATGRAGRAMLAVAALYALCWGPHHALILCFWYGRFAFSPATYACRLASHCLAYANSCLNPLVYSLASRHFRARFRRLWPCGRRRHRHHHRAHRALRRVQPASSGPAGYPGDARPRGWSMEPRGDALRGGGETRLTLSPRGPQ
MEASURE_NAME: Ki (nM)
# number only, unit nM dropped from output

Identify the reported Ki for the following entry. H-GWTLNSAGYLLGPPPALALA-NH2 [M40]
54

Identify the reported Ki for the following entry. H-ELEPEDEARPGGFDRLQSQDKAIRTIMEFLAFLHLKEAGAL-NH2 [GMAP (1-41)]
1000

Identify the reported Ki for the following entry. H-LLGPHAIDNHRSFSDKHGLT-NH2 [Galanin (10-29), rat]
1000
